Each entry below lists one item and its recorded MIC value.
- System: Propionibacterium acnes (ATCC6919)
- assayComment: Growth inhibition activity (MIC, agar) against anaerobic bacteria
- Assay type: cell-based
- conditionNotes: Cutibacterium acnes, ATCC6919, 72 h, strain ATCC6919; Trypticase Soy Broth agar, 37 degrees C. for 3 days; read-out: MIC (Minimum Inhibitory Concentration)
- Protocol: In the present invention, the growth inhibition activity, which is an indicator of the antimicrobial activity, is evaluated by determining the Minimum Inhibitory Concentration (MIC) with an agar or liquid medium. […]
Express your answer in µg/mL, writing the number without its unit.

Record excerpt, results attached:
# compound, MIC, µg/mL
measured = [
    ("CC(O)CC(=O)OC1CC(C)CCC1C(C)C [(3S)-CA20, menthyl 3-hydroxybutanoate]", 200),
    ("CC1CCC(C(C)C)C(OCCCO)C1 (stereo not shown)", 400),
]

Here is another compound to look at.
[in] Tell me its MIC given CC1CCC(C(C)C)C(OCC(O)CO)C1 (stereo not shown) [CA10, 3-menthoxypropane-1,2-diol, reference compound] as the entry.
[out] 800

* * *

- Tested on: Corynebacterium minutissimum (NBRC15361T)
- assayComment: Growth inhibition activity (MIC, agar) against aerobic bacteria
- Type: cell-based
- conditionNotes: Corynebacterium minutissimum; strain NBRC15361T; Mueller Hinton Agar, 37 degrees C. overnight; read-out: MIC (Minimum Inhibitory Concentration)
readoutName: MIC (µg/mL)
Output spec: scalar in µg/mL, unitless text.

# molecule, measurementTarget, unitText, MIC
records = [
    ("CC1CCC(C(C)C)C(O)C1 (stereo not drawn) [l-menthol, menthol, reference compound]", "Corynebacterium minutissimum (NBRC15361T)", "µg/mL", 1600),
    ("CC1CCC(C(C)C)C(OCC(C)(O)CO)C1 (stereo not shown) [CA1, 2-methyl-3-(menthoxy)propane-1,2-diol]", "Corynebacterium minutissimum (NBRC15361T)", "µg/mL", 400),
    ("CC1CCC(C(C)C)C(OCC(O)CO)C1 (stereo not shown) [CA10, 3-menthoxypropane-1,2-diol, reference compound]", "Corynebacterium minutissimum (NBRC15361T)", "µg/mL", 800),
    ("CC1CCC(C(C)C)C(OCCOCCO)C1 (stereo not shown) [CA55, 2-(2-menthoxyethoxy)ethanol]", "Corynebacterium minutissimum (NBRC15361T)", "µg/mL", 800),
    ("CC1CCC(C(C)C)C(OC(=O)C=O)C1 (stereo not shown) [CA MGH, menthyl glyoxylate]", "Corynebacterium minutissimum (NBRC15361T)", "µg/mL", 100),
    ("CC1CCC(C(C)C)C(OCCCO)C1 (stereo not shown) [CA15, 3-menthoxypropan-1-ol]", "Corynebacterium minutissimum (NBRC15361T)", "µg/mL", 200),
    ("CC(O)CC(=O)OC1CC(C)CCC1C(C)C [(3S)-CA20, menthyl 3-hydroxybutanoate]", "Corynebacterium minutissimum (NBRC15361T)", "µg/mL", 200),
]

[in] Using the record for CC1CCC(C(C)C)C(OCCO)C1 (stereo not shown) [CA5, 2-(menthoxy)ethanol] , state its measured MIC.
[out] 800

* * *

Each entry below lists one item and its recorded log10(MIC) value.
- Test system: Staphylococcus aureus (JCM2151)
- assayComment: Growth inhibition activity (MIC, agar) against aerobic bacteria
- Assay type: cell-based
- conditionNotes: Staphylococcus aureus; strain JCM2151; Mueller Hinton Agar, 37 degrees C. overnight; read-out: MIC (Minimum Inhibitory Concentration)
The base-10 logarithm of MIC, taken with MIC in µg/mL, is what appears here.

# molecule, log10(MIC)
data = [
    ("CC1CCC(C(C)C)C(OCCOCCO)C1 (stereo not shown)", 2.90),
    ("CC1CCC(C(C)C)C(OCC(C)(O)CO)C1 (stereo not shown)", 2.60),
    ("CC1CCC(C(C)C)C(OCC(O)CO)C1 (stereo not shown) [CA10, 3-menthoxypropane-1,2-diol, reference compound]", 2.90),
    ("CC1CCC(C(C)C)C(OCCCO)C1 (stereo not shown)", 2.30),
]

[in] For the molecule CC1CCC(C(C)C)C(OCCO)C1 (stereo not shown) , give its measured log10(MIC) value.
[out] 2.60

[in] Specify log10(MIC) for CC1CCC(C(C)C)C(O)C1 (stereo not drawn) [l-menthol, menthol, reference compound] and stop.
[out] 3.20

[in] Consider the molecule CC(O)CC(=O)OC1CC(C)CCC1C(C)C [(3S)-CA20, menthyl 3-hydroxybutanoate] and give its recorded log10(MIC).
[out] 2.00

[in] Check the records and state log10(MIC) for CC1CCC(C(C)C)C(OC(=O)C=O)C1 (stereo not shown) [CA MGH, menthyl glyoxylate]
[out] 2.00
